target: LMP7 (Homo sapiens, UniProt P28062); construct: using MOLT-4 cell lysate as the enzyme source of LMP7; endogenous in cells; host or cells: MOLT-4 (human acute lymphoblastic leukemia cells); assay: Cytological inhibitory activity on LMP7 in MOLT-4 cells; assay type: cell-based; settings: incubation for 2 hours with compound, read-out: Cytological activity data LMP7 Activity (MOLT-4Cell)
IC50: recorded values

compound: O=C(N[C@@H](Cc1coc2ccccc12)B(O)O)C(=O)N1C2CCC1COC2 [Ex. 39]
IC50: 3.51 nM
--
compound: Cc1csc(NC(=O)C(=O)N[C@@H](Cc2coc3ccccc23)B(O)O)n1 [Ex. 31]
IC50: 11 nM
--
compound: CC1COB([C@H](Cc2coc3ccccc23)NC(=O)C(=O)Nc2cnccn2)O1 (stereo partly shown) [Ex. 68]
IC50: 1.1 nM
--
compound: COC(=O)C(=O)N[C@@H](Cc1coc2ccccc12)B1O[C@@H]2CC3C[C@@H](C3(C)C)[C@]2(C)O1 [Ex. 61]
IC50: 46.6 nM
